# EXPERIMENT NOTES: NCI Yeast Anticancer Drug Screen. Data for the bub3 strain (AID 167)
# TEST SETTINGS: S. cerevisiae bub3 mutant strain, at 50.0 µM, active compounds read high
About 79,000 compounds went through this panel and 15% of them were active in at least one assay; those are over-represented in the sample as a whole.
For each record, write down the corresponding growth inhibition.
State the answer as a number, implicitly in %.

## Task Retrieve growth inhibition measured for CC(C)CCNc1nc(N)[nH]c(=O)c1NC=O and print it.
## Result 2.7

## Task Tell me its growth inhibition given O=CC(NC(=O)C(O)C(O)C(O)C(O)CO)C(O)C(O)C(O)CO (stereo not drawn) as the entry.
## Result -0.95

## Task Identify measured growth inhibition associated with CCCCN=C1Nc2nc(=NCCCC)nc3c(Br)cc(Br)c(n23)N1
## Result -4.9

## Task Please look at this compound and report its growth inhibition: Cc1cc(/C=C\[N+](=O)[O-])c(C)c2c1oc1ccccc12
## Result 2.4

## Task Consider the compound COc1nc(N)c2[nH]cnc2n1 . State its measured growth inhibition.
## Result 5.15

## Task Could you please provide reported growth inhibition for CC(O)c1nc2c3ccccc3ccc2n1C (stereo not drawn) ? Thanks!
## Result -1.25

## Task Given O=c1[nH]cnc2c1ncn2CCCCO , respond with its growth inhibition.
## Result -0.05

## Task Please give measured growth inhibition of the following entry: O=C1c2ccccc2C(=O)N1Nc1ccccc1
## Result 3.1

## Task Find the measured growth inhibition of O=C(O)c1nc(-c2ccc(S(=O)(=O)O)cc2)[nH]c1C(=O)O and report it.
## Result -6.05

## Task // fetch growth inhibition given entry Cc1cccc(C)c1NC(=S)NC1CC(C)CC(C)(C)C1 (stereo not drawn)
## Result 63

## Task Return value of growth inhibition for input Cc1nnc(N)s/c1=N/O , no commentary.
## Result 3.15

## Task Answer with the recorded growth inhibition for the compound listed here: CNC(=S)Nc1ccccc1
## Result -5.35

## Task Hello, please tell me recorded growth inhibition for this one: CC1(C)OC2C3COc4nc5c(N)ncnc5n4C(O3)C2O1 (stereo not drawn)
## Result -8.1

###

# EXPERIMENT NOTES: NCI Yeast Anticancer Drug Screen. Data for the sgs1 mgt1 strain (AID 161);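 further: 0% = growth of cultures given vehicle only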
# TEST SETTINGS: S. cerevisiae sgs1 mgt1 strain, at 50.0 µM, active compounds read high
Compounds without any hit were thinned out: in the full panel of roughly 79,000, 15% have a hit. Calls of active or inactive are those of the source. Rule as the data show it: active = growth inhibition above about 70%; inactive = the rest.
RESULT TYPE: growth inhibition

## Task Let me know recorded growth inhibition for Cc1nc(N)nc2c1CCC(=O)N2 , thanks.
## Result -3.1% (inactive)

## Task Please report the measured growth inhibition for CCCCCCCCCCCCCCCCSCCOC(=O)C1C2CCC(O2)C1C(=O)O (stereo unspecified)
## Result 10.4% (inactive)

## Task Let me know recorded growth inhibition for CC(C)C1OC(c2ccccc2)OCC1(C)C (stereo unspecified) , thanks.
## Result -4.15% (inactive)

## Task Supply growth inhibition value. Item: C=CCNC(=S)/N=C/C(C(=O)Nc1ccccc1)=C(/C)O
## Result -41.2% (inactive)

## Task Hello, please tell me recorded growth inhibition for this one: NC(=O)C(Br)Cc1cccc(Cl)c1 (stereo unspecified)
## Result 13.4% (inactive)

## Task Return growth inhibition for the following compound: COc1ccc(-c2cc(=O)c3c([nH]2)CCCC3)cc1
## Result -11.2% (inactive)

## Task Return the recorded growth inhibition value; entry: COc1ccc(/C=N/NC(=O)CCCCCCCCC(=O)N/N=C/c2ccc(OC)c(OC)c2)cc1OC
## Result -23.4% (inactive)

## Task Using the record for CN(C)c1ccc(/C=C2\CCc3ccccc3C2=O)cc1Br , state its measured growth inhibition.
## Result -13.9% (inactive)

## Task Please indicate growth inhibition recorded for COc1cc(-c2cc(-c3cc([N+](=O)[O-])c(/C=N/NC(=O)c4ccncc4)o3)ccc2OC)ccc1C
## Result -8.1% (inactive)

## Task Give the measured growth inhibition for CC(=O)N(C)c1ccc(Nc2cc(S(=O)(=O)O)c(N)c3c2C(=O)c2ccccc2C3=O)cc1
## Result -27.4% (inactive)

## Task Using known records, supply growth inhibition for O=C1/C(=C/c2cccc3ccccc23)CCc2ccc([N+](=O)[O-])cc21
## Result -49.9% (inactive)

###

I'd appreciate it if you could supply growth inhibition values for the items below.
# EXPERIMENT NOTES: NCI Yeast Anticancer Drug Screen. Data for the rad50 strain (AID 155);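 further: 0% = growth of vehicle-only cultures of the same strain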
# TEST SETTINGS: S. cerevisiae rad50 strain growth inhibition; at 50.0 µM; active compounds read high
Compounds without any hit were thinned out: in the full panel of roughly 79,000, 15% have a hit.
Write the value in % as a bare number.

## Task Return growth inhibition (reported value) for this molecule: CCCCOC(OCCCC)C(C)(C)CN(C)C
## Result 14.9

## Task Return growth inhibition for the following molecule: O=c1[nH]c2cc3ccccc3cc2c2ccccc12
## Result 21.9

## Task Quote growth inhibition reported for O=C(/C=N/O)Nc1cccc(Cl)c1I please.
## Result 18.4

## Task Kindly indicate its recorded growth inhibition. Item: O=C(O)c1cc2oc3ccccc3c2cc1O
## Result 2.4

## Task Supply reported growth inhibition belonging to this molecule: CCCc1c(O)cccc1O
## Result 13.8

## Task Please supply the value of reported growth inhibition for the item CCOc1nc(-c2ccccc2)cc(-c2ccc(N3CCOCC3)cc2)c1C#N
## Result 19

## Task Let me know recorded growth inhibition for CCSc1n[nH]c(=S)c2nc[nH]c12 , thanks.
## Result 12.7

## Task Provide growth inhibition value for the following molecule: O=C(NCc1ccc(Cl)c(Cl)c1)Nc1ccccc1F
## Result 11

## Task Specify reported growth inhibition for the molecule shown: CCC(C)C(=O)OCC1(c2ccc(C)cc2OC(=O)C(C)C)CO1 (stereo unspecified)
## Result 15.7

## Task Using the record for O=C(O)CNCCO , state its measured growth inhibition.
## Result -0.35

## Task Note down growth inhibition recorded for O=c1cc([N+](=O)[O-])c2c([nH]1)CCC2
## Result -5.3

## Task In one line, give reported growth inhibition of the entry CCCCc1c(C#N)c(=O)n2c(N)c(C#N)cnc2c1SC .
## Result 18.9

## Task State its growth inhibition: COC(=O)CCC(N)C(=O)O (stereo unspecified)
## Result 10.2

## Task Provide only the value of recorded growth inhibition for Cc1nc2ccccc2s1
## Result 25.1

## Task Name the recorded growth inhibition of the item O=[N+]([O-])c1cccc(/C=C/COc2ccccc2)c1 in your answer.
## Result -1.35

## Task Indicate the recorded growth inhibition value for this molecule: CN(CCN1CCOCC1)C(c1ccccc1)c1ccccc1
## Result 83.7

## Task Quickly give me recorded growth inhibition for CC1(C)CC(=O)C(/C(=N/NC(=S)NN)C(=O)Nc2nc3ccc([N+](=O)[O-])cc3s2)C(=O)C1
## Result 35.8

## Task In one line, give reported growth inhibition of the entry O=C(O)CCc1nc2ccccc2[nH]1 .
## Result -9.3

## Task Hello, please tell me recorded growth inhibition for this one: Cc1ccc(CN(C)N=Nc2ccc(C#N)cc2)cc1
## Result 2.55

## Task Complete the entry with growth inhibition for Cc1cc(=O)c2cc(-c3ccccc3)ccc2[nH]1
## Result -1

## Task Give the reported growth inhibition for this molecule. CC(C)(C)NC(=S)N/N=C/c1ccccn1
## Result 77.2

## Task // fetch growth inhibition given entry O=C(c1cccc(C(F)(F)F)c1)c1ccccc1Cc1ccccc1
## Result 3.85

## Task Assign growth inhibition to the following record: COc1cc(C(OC(C)=O)OC(C)=O)c(Cl)c(Cl)c1OC(C)=O
## Result 16.7

## Task Return growth inhibition (reported value) for this molecule: CC(=O)OC1CCC2(C)C3C/C(=N\O)C4(C)C(C(C)OC(C)=O)CCC4C3CCC2(C)C1 (stereo unspecified)
## Result 95.3

## Task Specify reported growth inhibition for the molecule shown: CC1(C)C(=O)c2cc3ccc4ccccc4c3cc2C(C)(C)C1(C)C
## Result -1.25

## Task Note growth inhibition for the molecule shown: Cc1cccc(NC(=O)COc2ccc(Cl)cc2)c1C
## Result 12.4

###

I'd appreciate it if you could supply growth inhibition values for the items below.
# EXPERIMENT NOTES: NCI Yeast Anticancer Drug Screen. Data for the bub3 strain (AID 167)
# TEST SETTINGS: S. cerevisiae bub3 mutant strain, at 50.0 µM, active compounds read high
This is part of a sample that, as a whole, favours compounds with a hit. Of some 79,000 tested, about 15% had one in any assay.
Report as a plain number; the unit % is understood.

## Task Tell me its growth inhibition given c1ccc2c(c1)N=C(NNC1=Nc3ccccc3SC1)CS2 as the entry.
## Result 1.25

## Task Give growth inhibition for O=C(CNC(=O)C(CO)NC(=O)OCc1ccccc1)OCc1ccccc1 (configuration not stated)
## Result -0.1

## Task Could you please provide reported growth inhibition for COc1ccc(CN2CCCN(Cc3ccc(OC)cc3OC)C2c2ccccc2)c(OC)c1 ? Thanks!
## Result -4.6

## Task Please report the measured growth inhibition for CC(=O)CC(=O)NC1CCCC1
## Result -50

## Task Check the records and state growth inhibition for CCCC(O)c1ccccc1C (configuration not stated)
## Result 4.6

## Task Read the entry CCN(CCNc1cc(OC)cc2cccnc12)CC(C)C and write its reported growth inhibition.
## Result 6.85

## Task # return recorded growth inhibition for input Cc1ccc(NC(=O)CCC(=O)O)cc1Cl
## Result -10.9

## Task Supply measured growth inhibition of Oc1ccccc1C=Nc1ccc(N2CCOCC2)cc1 in your reply.
## Result 2.05

## Task Give the reported growth inhibition for this compound. COc1ccc(C(=O)c2cccc(C(=O)c3ccc(OC)cc3)c2)cc1
## Result -13.5

## Task State its growth inhibition for this compound: c1ccc(C2CN3CCSC3=N2)cc1 (configuration not stated)
## Result -12.2

## Task Supply recorded growth inhibition for O=C(c1ccccc1)C(c1ccccc1)n1nc2c(c1-c1ccccc1)CCCC2 (configuration not stated) here.
## Result 86.4

## Task Identify measured growth inhibition associated with Cc1cc(C)nc(NS(=O)(=O)c2ccc(NC(=O)c3cccn4c(=O)c5ccccc5nc34)cc2)n1
## Result 27.1
